Molecular target: T1, human CD3 E&D complex protein (Sino Biological Inc., CT026H0323H) (human, UniProt P07766 23-126; P04234 22-105)
T1 construct: bought heterodimer; also called human CD3 protein (CT026H0323H)
T1 sequence (P07766 23-126, chain 1 of 2): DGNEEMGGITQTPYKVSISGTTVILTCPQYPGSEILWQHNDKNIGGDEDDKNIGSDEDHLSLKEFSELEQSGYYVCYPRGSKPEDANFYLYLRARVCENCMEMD
T1 sequence (P04234 22-105, chain 2 of 2): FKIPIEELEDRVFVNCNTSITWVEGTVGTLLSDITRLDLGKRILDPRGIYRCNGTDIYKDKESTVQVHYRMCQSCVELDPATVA
Assay: BLI, antibody on sensor
ENDPOINT: kon (M⁻¹ s⁻¹)
# output: bare number, implied unit M⁻¹ s⁻¹

Consider the following illustrative entries.
BINDER | ENDPOINT | ASSAY VALUE
hzsp34.98 (antibody, human IgG1, lambda, L234A L235A, V domains shown, CDR mutant of hzsp34.24; IgG1 L234A L235A, lambda) VH: EVQLVESGGGLVQPGGSLKLSCAASGFTFNTYAMNWVRQASGKGLEWVGRIRSKYNNYATYYADSVKDRFTISRDDSKSTLYLQMNSLKTEDTAVYYCARHYGFGQSYVSWFAYWGQGTTVTVSS VL: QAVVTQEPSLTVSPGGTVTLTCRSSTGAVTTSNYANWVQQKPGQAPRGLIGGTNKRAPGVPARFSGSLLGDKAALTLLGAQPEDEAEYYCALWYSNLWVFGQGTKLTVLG | kon | 201000
hzsp34.93 (antibody, human IgG1, lambda, L234A L235A, V domains shown, CDR mutant of hzsp34.24; IgG1 L234A L235A, lambda) VH: EVQLVESGGGLVQPGGSLKLSCAASGFTFNTYAMNWVRQASGKGLEWVGRIRSKYNNYATYYADSVKDRFTISRDDSKSTLYLQMNSLKTEDTAVYYCARHGNFGQSAVSWFAYWGQGTTVTVSS VL: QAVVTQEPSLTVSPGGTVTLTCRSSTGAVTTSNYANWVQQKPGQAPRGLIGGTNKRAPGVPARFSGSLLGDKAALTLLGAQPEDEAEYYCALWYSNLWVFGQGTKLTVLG | kon | 266000

Could you now consider this next binder?
// returns reported kon for input hzsp34.101 (antibody, human IgG1, lambda, L234A L235A, V domains shown, CDR mutant of hzsp34.24; IgG1 L234A L235A, lambda) VH: EVQLVESGGGLVQPGGSLKLSCAASGFTFNTYAMNWVRQASGKGLEWVGRIRSKYNNYATYYADSVKDRFTISRDDSKSTLYLQMNSLKTEDTAVYYCARHGNFGQSAASWFAYWGQGTTVTVSS VL: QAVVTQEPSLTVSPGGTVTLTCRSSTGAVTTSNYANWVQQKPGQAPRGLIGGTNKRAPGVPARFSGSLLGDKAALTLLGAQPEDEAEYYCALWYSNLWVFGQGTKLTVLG 217000

From: patent US20230374132A1
